Biological target: T1, corticotropin-releasing hormone (CRH) peptide (human and mouse (same sequence), not fully specified)
T1 peptide: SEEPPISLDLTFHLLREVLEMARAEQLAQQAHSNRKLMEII
Experiment: cell-based or functional assay
METRIC: mCrhr1 Luciferase Reporter Assay IC50 (nM)
Give bare numbers, in nM.

{"BINDER": "PR302341-45 (antibody, human IgG1, kappa, V domains shown) VH: QVQLVQSGAEVKKPGASVKVSCKASGYTFTDYFMKWVRQAPGQGLEWMGVINPNQGDIFYNQKFKGRVTMTVDKSTSTAYMELSSLRSEDTAVYYCARGTDRALFAYWGQGTLVTVSS VL: DVVMTQTPLSSPVTLGQPASISCRSGQSIVHSDGNTYLEWYQQRPGQPPRLLIYKVSNRFSGVPDRFSGSGAGTDFTLKISRVEAEDLGVYYCFQGSHIPWTFGGGTKVEIKR", "UNIT_STRING": "nM", "mCrhr1 Luciferase Reporter Assay IC50": 1.83}
{"BINDER": "PR302341-55 (antibody, human IgG1, kappa, V domains shown) VH: QVQLVQSGAEVKKPGASVKVSCKASGYTFTDYFMKWVRQAPGQRLEWMGVINPNNADIFYNQKFKGRVTITRDTSASTAYMELSSLRSEDTAVYYCARGTDRALFAYWGQGTLVTVSS VL: DVVMTQSPLSLPVTLGQPASISCRSGQSIVHSDGNTYLEWYQQRPGQSPRLLIYKVSNRFSGVPDRFSGSGSGTDFTLKISRVEAEDLGVYYCFQGSHIPWTFGGGTKVEIKR", "UNIT_STRING": "nM", "mCrhr1 Luciferase Reporter Assay IC50": 3.19}
{"BINDER": "PR302341-20 (antibody, human IgG1, kappa, V domains shown) VH: QVQLVQSGAEVKKPGASVKVSCKASGYTFTDYFMKWVRQAPGQRLEWMGVINPNNGDIFYNQKFKGRVTITRDTSASTAYMELSSLRSEDTAVYYCARGTDRALFAYWGQGTLVTVSS VL: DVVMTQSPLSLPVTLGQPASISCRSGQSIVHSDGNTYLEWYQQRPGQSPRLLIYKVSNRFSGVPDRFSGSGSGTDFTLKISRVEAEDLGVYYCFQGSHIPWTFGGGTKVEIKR", "UNIT_STRING": "nM", "mCrhr1 Luciferase Reporter Assay IC50": 1.62}
{"BINDER": "PR302341-48 (antibody, human IgG1, kappa, V domains shown) VH: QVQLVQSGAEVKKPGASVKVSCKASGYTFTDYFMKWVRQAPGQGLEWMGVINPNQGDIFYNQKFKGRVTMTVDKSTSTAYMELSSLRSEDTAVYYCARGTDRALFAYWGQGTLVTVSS VL: DVVMTQTPLSSPVTLGQPASISCRSGQSIVHSDANTYLEWYQQRPGQPPRLLIYKVSNRFSGVPDRFSGSGAGTDFTLKISRVEAEDLGVYYCFQGSHIPWTFGGGTKVEIKR", "UNIT_STRING": "nM", "mCrhr1 Luciferase Reporter Assay IC50": 1.46}
{"BINDER": "PR302341-52 (antibody, human IgG1, kappa, V domains shown) VH: QVQLVQSGAEVKKPGASVKVSCKASGYTFTDYFMKWVRQAPGQGLEWMGVINPNNADIFYNQKFKGRVTMTVDKSTSTAYMELSSLRSEDTAVYYCARGTDRALFAYWGQGTLVTVSS VL: DVVMTQTPLSSPVTLGQPASISCRSGQSIVHSSGNTYLEWYQQRPGQPPRLLIYKVSNRFSGVPDRFSGSGAGTDFTLKISRVEAEDLGVYYCFQGSHIPWTFGGGTKVEIKR", "UNIT_STRING": "nM", "mCrhr1 Luciferase Reporter Assay IC50": 3.29}

Each binder below has a reported value. Please supply its mCrhr1 Luciferase Reporter Assay IC50.
1. PR302341-59 (antibody, human IgG1, kappa, V domains shown) VH: QVQLVQSGAEVKKPGASVKVSCKASGYTFTDYFMKWVRQAPGQRLEWMGVINPNSGDIFYNQKFKGRVTITRDTSASTAYMELSSLRSEDTAVYYCARGTDRALFAYWGQGTLVTVSS VL: DVVMTQSPLSLPVTLGQPASISCRSGQSIVHSDANTYLEWYQQRPGQSPRLLIYKVSNRFSGVPDRFSGSGSGTDFTLKISRVEAEDLGVYYCFQGSHIPWTFGGGTKVEIKR
2. PR302341-33 (antibody, human IgG1, kappa, V domains shown) VH: QVQLVQSGAEVKKPGASVKVSCKASGYTFTDYFMKWVRQAPGQGLEWMGVINPNNADIFYNQKFKGRVTMTVDKSISTAYMELSRLRSDDTAVYYCARGTDRALFAYWGQGTLVTVSS VL: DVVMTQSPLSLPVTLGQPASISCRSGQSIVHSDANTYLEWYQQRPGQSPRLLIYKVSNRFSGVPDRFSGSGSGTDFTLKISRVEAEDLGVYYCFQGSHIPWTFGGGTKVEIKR
3. PR302341-53 (antibody, human IgG1, kappa, V domains shown) VH: QVQLVQSGAEVKKPGASVKVSCKASGYTFTDYFMKWVRQAPGQGLEWMGVINPNSGDIFYNQKFKGRVTMTVDKSTSTAYMELSSLRSEDTAVYYCARGTDRALFAYWGQGTLVTVSS VL: DVVMTQTPLSSPVTLGQPASISCRSGQSIVHSSGNTYLEWYQQRPGQPPRLLIYKVSNRFSGVPDRFSGSGAGTDFTLKISRVEAEDLGVYYCFQGSHIPWTFGGGTKVEIKR
4. PR302341-28 (antibody, human IgG1, kappa, V domains shown) VH: QVQLVQSGAEVKKPGASVKVSCKASGYTFTDYFMKWVRQAPGQGLEWMGVINPNQGDIFYNQKFKGRVTMTVDKSISTAYMELSRLRSDDTAVYYCARGTDRALFAYWGQGTLVTVSS VL: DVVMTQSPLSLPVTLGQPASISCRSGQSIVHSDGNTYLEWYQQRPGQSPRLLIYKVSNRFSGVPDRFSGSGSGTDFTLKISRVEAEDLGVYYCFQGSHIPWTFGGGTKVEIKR
5. PR302341-58 (antibody, human IgG1, kappa, V domains shown) VH: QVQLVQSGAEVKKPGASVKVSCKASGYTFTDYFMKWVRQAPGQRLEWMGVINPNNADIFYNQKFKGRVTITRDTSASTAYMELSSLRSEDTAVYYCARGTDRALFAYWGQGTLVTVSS VL: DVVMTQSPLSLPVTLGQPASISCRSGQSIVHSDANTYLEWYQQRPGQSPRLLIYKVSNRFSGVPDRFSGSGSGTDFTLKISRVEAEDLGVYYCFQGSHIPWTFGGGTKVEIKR

Response given:
4
1.66
5.36
2.43
3.54

Data provenance: patent US20260042834A1
